Below, each entry is listed with its recorded screen value.
B1: GST-tagged USP8 MIT domain (1-142) [human] / Girdin 1192-1207 peptide, cellulose-bound (SPOT array) [human] (parent complex)
chain 1: MPAVASVPKELYLSSSLKDLNKKTEVKPEKISTKSYVHSALKIFKTAEECRLDRDEERAYVLYMKYVTVYNLIKKRPDFKQQQDYFHSILGPGNIKKAVEEAERLSESLKLRYEEAEVRKKLEEKDRQEEAQRLQQKRQETG
chain 2: EVEHRDLEDRYNQLLK

- Variants of: B1
- assay.method.text: SPOT array alanine scanning; read off a plot

Some variants with known screen value results, for comparison:
sequence.record	screen value
chain 2 EVEHRDLEDRYAQLLK [chain 2 N12A]	~-37%
chain 2 AVEHRDLEDRYNQLLK [chain 2 E1A]	~50%
chain 2 EVEHRDLADRYNQLLK [chain 2 E8A]	~-72%

Prompt line: Value lookup for screen value; key = chain 2 EVEHADLEDRYNQLLK [chain 2 R5A]
Response line: ~48%

Prompt line: Value lookup for screen value; key = chain 2 EVEHRDLEARYNQLLK [chain 2 D9A]
Response line: ~58%

Prompt line: Value lookup for screen value; key = chain 2 EVAHRDLEDRYNQLLK [chain 2 E3A]
Response line: ~80%
